System: A2780
assayProtocol: Antiproliferative activity against human A2780 cells after 48 hrs by MTT assay
Type: functional
particulars: A2780, 48 h
// classify: if (GI50 < 3 µM) Yes else No

Worked examples follow.
>  <compound>
COC(=O)N1N=C(c2ccc(OC)c(OC)c2)CC1c1cc(OC)c(OC)c(OC)c1 (configuration not stated)

>  <systemTested>
A2780

>  <group>
No

$$$$
>  <compound>
COC(=O)N1N=C(c2ccc(OC)cc2)CC1c1cc(OC)c(OC)c(OC)c1 (configuration not stated)

>  <systemTested>
A2780

>  <group>
No

$$$$

Exercise: Quick check: GI50 of CCOC(=O)N1N=C(c2cccc(O)c2)CC1c1cc(OC)c(OC)c(OC)c1 (configuration not stated) under 3 µM?
Solution: No

Exercise: Quick check: GI50 of COC(=O)N1N=C(c2ccccc2)CC1c1cc(OC)c(OC)cc1OC (configuration not stated) under 3 µM?
Solution: No

Exercise: Quick check: GI50 of COc1cc(C2CC(c3cccc(O)c3)=NN2C(=O)OCc2ccccc2)cc(OC)c1OC (configuration not stated) under 3 µM?
Solution: No

Exercise: Quick check: GI50 of COc1cc(C2CC(c3ccccc3)=NN2C(=O)OCc2ccccc2)cc(OC)c1OC (configuration not stated) under 3 µM?
Solution: No

Exercise: Quick check: GI50 of COC(=O)N1N=C(c2cccc(Cl)c2)CC1c1cc(OC)c(OC)c(OC)c1 (configuration not stated) under 3 µM?
Solution: Yes

Exercise: Quick check: GI50 of CCOc1cccc(C2=NN(C(=O)OC)C(c3cc(OC)c(OC)c(OC)c3)C2)c1 (configuration not stated) under 3 µM?
Solution: Yes

###

System: MDA-MB-231
assayProtocol: Antiproliferative activity against human MDA-MB-231 cells after 48 hrs by MTT assay
Assay type: functional
particulars: MDA-MB-231, 48 h
quantityName: GI50

Guide cases for GI50, answers given:
>  <compound>
COC(=O)N1N=C(c2ccc(O)cc2)CC1c1cc(OC)c(OC)c(OC)c1 (stereo not drawn)

>  <systemTested>
MDA-MB-231

>  <GI50>
7.15 µM

$$$$
>  <compound>
COC(=O)N1N=C(c2ccccc2)CC1c1ccccc1 (stereo not drawn)

>  <systemTested>
MDA-MB-231

>  <GI50>
> 10 µM

$$$$
>  <compound>
COc1ccc(C2=NN(C(=O)OCc3ccccc3)C(c3cc(OC)c(OC)c(OC)c3)C2)cc1 (stereo not drawn)

>  <systemTested>
MDA-MB-231

>  <GI50>
> 10 µM

$$$$
>  <compound>
COC(=O)N1N=C(c2ccccc2)CC1c1ccc(OC)cc1 (stereo not drawn)

>  <systemTested>
MDA-MB-231

>  <GI50>
> 10 µM

$$$$
>  <compound>
COc1cc(C2CC(c3ccccc3)=NN2C(=O)OCc2ccccc2)cc(OC)c1OC (stereo not drawn)

>  <systemTested>
MDA-MB-231

>  <GI50>
> 10 µM

$$$$
>  <compound>
COC(=O)N1N=C(c2ccccc2)CC1c1cc(OC)c(OC)cc1OC (stereo not drawn)

>  <systemTested>
MDA-MB-231

>  <GI50>
> 10 µM

$$$$
>  <compound>
COc1ccc(/C=C\c2cc(OC)c(OC)c(OC)c2)cc1OP(=O)([O-])[O-].[Na+].[Na+] [FOSBRETABULIN DISODIUM]

>  <systemTested>
MDA-MB-231

>  <GI50>
0.065 µM

$$$$

Exercise: Give me measured GI50, please, for this compound: COc1cccc(C2=NN(C(=O)OCc3ccccc3)C(c3cc(OC)c(OC)c(OC)c3)C2)c1 (stereo not drawn)
Solution: > 10 µM

###

System: A549
assayProtocol: Antiproliferative activity against human A549 cells after 48 hrs by MTT assay
Assay type: functional
particulars: A549, 48 h
quantityName: GI50

>  <compound>
COC(=O)N1N=C(c2ccccc2)CC1c1ccccc1 (stereo not given)

>  <systemTested>
A549

>  <GI50>
> 10 µM

$$$$
>  <compound>
CCOC(=O)N1N=C(c2ccc(OC)cc2)CC1c1cc(OC)c(OC)c(OC)c1 (stereo not given)

>  <systemTested>
A549

>  <GI50>
4.69 µM

$$$$
>  <compound>
CCCOC(=O)N1N=C(c2cccc(OC)c2)CC1c1cc(OC)c(OC)c(OC)c1 (stereo not given)

>  <systemTested>
A549

>  <GI50>
> 10 µM

$$$$

Exercise: Give me measured GI50, please, for this compound: CCCOC(=O)N1N=C(c2ccccc2)CC1c1cc(OC)c(OC)c(OC)c1 (stereo not given)
Solution: > 10 µM

Exercise: Give me measured GI50, please, for this compound: CCCOC(=O)N1N=C(c2ccc(OC)cc2)CC1c1cc(OC)c(OC)c(OC)c1 (stereo not given)
Solution: > 10 µM

###

The reader will find reported GI50 values listed item by item below.
Tested on: A2780
assayProtocol: Antiproliferative activity against human A2780 cells after 48 hrs by MTT assay
Assay type: functional
particulars: A2780, 48 h

>  <molecule>
CCCOC(=O)N1N=C(c2ccc(OC)cc2)CC1c1cc(OC)c(OC)c(OC)c1 (centres undefined)

>  <GI50>
11700 nM

$$$$
>  <molecule>
COC(=O)N1N=C(c2ccc(O)cc2)CC1c1cc(OC)c(OC)c(OC)c1 (centres undefined)

>  <GI50>
2520 nM

$$$$
>  <molecule>
COC(=O)N1N=C(c2cccc(OC)c2)CC1c1cc(OC)c(OC)c(OC)c1 (centres undefined)

>  <GI50>
2780 nM

$$$$

Now consider the entry below.
Exercise: Give me measured GI50, please, for this molecule: COC(=O)N1N=C(c2ccccc2)CC1c1c(OC)cc(OC)cc1OC (centres undefined)
Solution: > 10000 nM
